The reported numbers originate from patent US20060264369.

// reported pKd per item
System Under Test: von Willebrand factor A1 domain (Homo sapiens, UniProt P04275 SEQ:13-246)
Sequence (P04275 1238-1471 T1381A): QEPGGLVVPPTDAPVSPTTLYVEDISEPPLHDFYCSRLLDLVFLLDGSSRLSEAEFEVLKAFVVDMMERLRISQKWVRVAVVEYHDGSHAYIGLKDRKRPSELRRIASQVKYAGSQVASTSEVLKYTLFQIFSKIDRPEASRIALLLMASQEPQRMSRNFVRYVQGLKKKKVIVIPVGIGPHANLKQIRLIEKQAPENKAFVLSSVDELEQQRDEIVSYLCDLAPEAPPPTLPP
Method Summary: filter; DPBS, 0.1 mg/mL BSA, RT
Details: label: 5'-32P
Note on units: pKd is unitless, being -log10 of a concentration expressed in mol/L.

Sample records with pKd:
Binder | Result Type | Experimental Value
GGCCACACGACATTGGCGGGCGAGAGCCACGCATGGCC (mixed, 2'-OH purines, deoxy pyrimidines) [rRdY minimer SEQ 198] | pKd | 8.30
GGAGCCACGGGGTGGGTAGACGGCGGGTATGTGGCTCC (mixed, 2'-OH purines, deoxy pyrimidines) [rRdY minimer SEQ 180] | pKd | 7.96

Continue with the next binder.
What value of pKd has been recorded for this entry: GGAGCCACACGACATTGGCGGGCGAGAGCCACGCATGGCTCC (mixed, 2'-OH purines, deoxy pyrimidines) [rRdY minimer SEQ 192]
8.40
